- Tested on: HCC827 (exon 19 deletion mutation)
- Assay name: Cell antiproliferative assay (CTG, 72 h), HCC827
- Format: cell-based, human
- Cond: Homo sapiens, HCC827, 72 h, Table 2, HCC827 cells
Experimental endpoint: IC50

Examples with answers:
- Compound: "COc1nc(N2CCN(C(=O)CN3CCC(c4ccc(NC5CCC(=O)NC5=O)cc4)CC3)CC2)ccc1Nc1ncc(Cl)c(Nc2ccccc2P(C)(C)=O)n1 (stereo not drawn)"
  IC50: "10 to 100 nM"
- Compound: "COc1cc(N2C3CCC2CN(C(=O)CN2CCC(c4ccc(NC5CCC(=O)NC5=O)cc4)CC2)C3)ccc1Nc1ncc(Cl)c(Nc2ccccc2C(C)=O)n1 (stereo not drawn)"
  IC50: "100 to 1000 nM"

From here, focus on the item given below.
Enquiry: # query: IC50 of entry COc1cc(N2C[C@H]3CN(C(=O)CN4CCN(c5ccc(NC6CCC(=O)NC6=O)cc5)CC4)C[C@H]3C2)ccc1Nc1ncc(Cl)c(Nc2ccccc2C(C)=O)n1 (stereo partly drawn)
Return: 100 to 1000 nM

====

Measured IC50, listed per entry for reference.
- Test system: H1975 (EGFR L858R/T790M double mutation)
- Assay name: Cell antiproliferative assay (CTG, 72 h), H1975
- Assay type: cell-based, human
- Cond: Homo sapiens, NCI-H1975, 72 h, Table 2, H1975 cells

- Compound: "COc1cc(N2CCN(C(=O)CN3CCC(c4ccc(NC5CCC(=O)NC5=O)cc4)CC3)CC2)ncc1Nc1ncc(C(F)(F)F)c(Nc2ccccc2C(C)=O)n1 (stereo not shown)"
  IC50: "≤ 10 nM"
- Compound: "COc1cc(N2CCN(C(=O)CN3CCC(c4ccc(NC5CCC(=O)NC5=O)cc4)CC3)CC2)ccc1Nc1ncc(Cl)c(Nc2cccc(F)c2)n1 (stereo not shown)"
  IC50: "10 to 100 nM"
- Compound: "CNC(=O)c1ccccc1Nc1nc(Nc2cc(C)c(N3CCN(C(=O)CN4CCC(c5ccc(NC6CCC(=O)NC6=O)cc5)CC4)C(C)C3)cc2OC)ncc1C(F)(F)F (stereo not shown)"
  IC50: "10 to 100 nM"

Enquiry: Dear colleague, I am looking for the recorded IC50 of the following compound: CNC(=O)c1ccccc1Nc1nc(Nc2ccc(N3CCN(C(=O)CN4CCC(c5ccc(NC6CCC(=O)NC6=O)cc5F)CC4)CC3)cc2OC)ncc1Br (stereo not shown)
Return: ≤ 10 nM

Enquiry: Also CNC(=O)c1ccccc1Nc1nc(Nc2cc(C)c(N3CCN(C(=O)CN4CCC(c5ccc(NC6CCC(=O)NC6=O)cc5)CC4)CC3)cc2OC)ncc1Cl (stereo not shown) ?
Return: ≤ 10 nM

Enquiry: Item: COc1cc(N2CCN(C(=O)CN3CCC(c4ccc(NC5CCC(=O)NC5=O)cc4)CC3)CC2)ccc1Nc1ncc(Cl)c(Nc2ccccc2C(=O)NC2CCCC2)n1 (stereo not shown)
Return: 10 to 100 nM

Enquiry: Now consider CCc1cc(Nc2ncc(C(F)(F)F)c(Nc3ccccc3C(=O)NC)n2)c(OC)cc1N1CCN(C(=O)CN2CCC(c3ccc(NC4CCC(=O)NC4=O)cc3)CC2)CC1 (stereo not shown) and answer again.
Return: 10 to 100 nM

Enquiry: Thanks! And COc1cc(N2CCN(C(=O)CN3CCC(c4ccc(Cn5ccc(=O)[nH]c5=O)cc4)CC3)CC2)ccc1Nc1ncc(Cl)c(Nc2ccccc2C(C)=O)n1 ?
Return: 100 to 1000 nM

Enquiry: And for CNC(=O)c1ccccc1Nc1nc(Nc2ccc(N3CCN(C(=O)CC4(F)CCN(c5ccc(NC6CCC(=O)NC6=O)cc5)CC4)CC3)cc2OC)ncc1Cl (stereo not shown) ?
Return: 10 to 100 nM

Enquiry: Try this compound too: COc1cc(N2CC[C@H](N(C)C(=O)CN3CCC(c4ccc(NC5CCC(=O)NC5=O)cc4)CC3)C2)ccc1Nc1ncc(Cl)c(Nc2ccccc2C(C)=O)n1 (stereo partly shown)
Return: 100 to 1000 nM

Enquiry: Would you mind doing COc1nc(N2CCN(C(=O)CN3CCC(c4ccc(NC5CCC(=O)NC5=O)cc4)CC3)CC2)ccc1Nc1ncc(Cl)c(Nc2ccccc2C(C)=O)n1 (stereo not shown) as well?
Return: 100 to 1000 nM

Enquiry: Likewise for COc1cc(N2CCC(NC(=O)CN3CCC(c4ccc(NC5CCC(=O)NC5=O)cc4)CC3)CC2)ccc1Nc1ncc(Cl)c(Nc2ccccc2C(C)=O)n1 (stereo not shown) ?
Return: 100 to 1000 nM

Enquiry: Let us now turn to COc1cc(N2CCN(C(=O)CN3CCC(c4ccccc4NC4CCC(=O)NC4=O)CC3)CC2)ccc1Nc1ncc(Cl)c(Nc2ccccc2C(C)=O)n1 (stereo not shown)
Return: 100 to 1000 nM

Enquiry: Record: COc1cc(N2CCN(C(=O)C3CCN(CC4CCN(c5ccc6c(c5)C(=O)N(C5CCC(=O)NC5=O)C6=O)CC4)CC3)CC2)ccc1Nc1ncc(Cl)c(Nc2ccccc2C(C)=O)n1 (stereo not shown)
Return: 100 to 1000 nM

Enquiry: // same read-out, input: COc1cc(N2CC(N(C)C(=O)CN3CCC(c4ccc(NC5CCC(=O)NC5=O)cc4)CC3)C2)ccc1Nc1ncc(Cl)c(Nc2ccccc2C(C)=O)n1 (stereo not shown)
Return: 100 to 1000 nM

Enquiry: Same question for COc1cc(N2C[C@H]3CN(C(=O)CN4CCN(c5ccc(NC6CCC(=O)NC6=O)cc5)CC4)C[C@H]3C2)ccc1Nc1ncc(Cl)c(Nc2ccccc2C(C)=O)n1 (stereo partly shown) please.
Return: 10 to 100 nM

====

- System: HCC827 (exon 19 deletion mutation)
- Assay name: Cell antiproliferative assay (CTG, 72 h), HCC827
- Type: cell-based, human
- Cond: Homo sapiens, HCC827, 72 h, Table 2, HCC827 cells
Experimental endpoint: IC50

Solved entries:
- Compound: "C=CC(=O)Nc1cc(Nc2ncc(Cl)c(Nc3ccccc3)n2)c(OC)cc1N1CCN(C(=O)CN2CCC(c3ccc(NC4CCC(=O)NC4=O)cc3)CC2)CC1 (stereo not shown)"
  Endpoint value: "100 to 1000 nM"
- Compound: "COc1cc(OC2CCN(C(=O)CN3CCC(c4ccc(NC5CCC(=O)NC5=O)cc4)CC3)CC2)ccc1Nc1ncc(Cl)c(Nc2ccccc2C(C)=O)n1 (stereo not shown)"
  Endpoint value: "100 to 1000 nM"
- Compound: "COc1cc(N2CCN(C(=O)CN3CCC(c4ccc(NC5CCC(=O)NC5=O)cc4)CC3)CC2)c(C)cc1Nc1ncc(Cl)c(Nc2ccccc2C(C)=O)n1 (stereo not shown)"
  Endpoint value: "100 to 1000 nM"
- Compound: "C=CC(=O)Nc1cc(Nc2ncc(C(F)(F)F)c(Nc3ccccc3)n2)c(OC)cc1N1CCN(C(=O)CN2CCC(c3ccc(NC4CCC(=O)NC4=O)cc3)CC2)CC1 (stereo not shown)"
  Endpoint value: "100 to 1000 nM"
- Compound: "COc1cc(N2CCC(N(C)C(=O)CN3CCC(c4ccc(NC5CCC(=O)NC5=O)cc4)CC3)CC2)ccc1Nc1ncc(Cl)c(Nc2ccccc2C(C)=O)n1 (stereo not shown)"
  Endpoint value: "100 to 1000 nM"

Enquiry: IC50 for COc1cc(N2CCN(C(=O)CN3CCC(c4ccc(NC5CCC(=O)NC5=O)cc4)C3)CC2)ccc1Nc1ncc(Cl)c(Nc2ccccc2C(C)=O)n1 (stereo not shown) ?
Return: 100 to 1000 nM

Enquiry: Likewise for COc1cc(N2CCN(C(=O)CC3(F)CCN(c4ccc(NC5CCC(=O)NC5=O)cc4)CC3)CC2)ccc1Nc1ncc(Cl)c(Nc2ccccc2C(C)=O)n1 (stereo not shown) ?
Return: 10 to 100 nM

Enquiry: Query COc1cc(N2CCN(C(=O)CN3CCC(c4ccc(NC5CCC(=O)NC5=O)cc4)CC3)CC2)ccc1Nc1ncc(C(F)(F)F)c(Nc2ccccc2)n1 (stereo not shown) next
Return: ≥ 1000 nM

Enquiry: Next compound up: CNC(=O)c1ccccc1Nc1nc(Nc2cc(C)c(N3CCN(C(=O)CN4CCC(c5ccc(NC6CCC(=O)NC6=O)cc5)CC4)C(C)C3)cc2OC)ncc1Br (stereo not shown)
Return: 10 to 100 nM

Enquiry: Field entry: COc1cc(C2CCN(C(=O)CN3CCC(c4ccc(NC5CCC(=O)NC5=O)cc4)CC3)CC2)ccc1Nc1ncc(Cl)c(Nc2ccccc2P(C)(C)=O)n1 (stereo not shown)
Return: ≥ 1000 nM

Enquiry: Repeat for the following compound: COc1cc(N2CCN(C(=O)CN3CCC(c4ccc(NC5CCC(=O)NC5=O)cc4)CC3)C(C)C2)ccc1Nc1ncc(Cl)c(Nc2ccccc2)n1 (stereo not shown)
Return: ≥ 1000 nM

Enquiry: Ok, now COc1cc(N2CCN(C(=O)CN3CCC(c4ccc(NC5CCC(=O)NC5=O)cc4)CC3)CC2)ccc1Nc1ncc(C(F)(F)F)c(Nc2ccccc2P(C)(C)=O)n1 (stereo not shown)
Return: 100 to 1000 nM

Enquiry: Next record, please: COc1cc(N2CCN(C(=O)CN3CCC(c4ccc(NC5CCC(=O)NC5=O)cc4)CC3)CC2)ccc1Nc1ncc(Cl)c(Nc2ccccc2C(=O)NC2CCCC2)n1 (stereo not shown)
Return: 100 to 1000 nM

Enquiry: Try the compound CNC(=O)c1ccccc1Nc1nc(Nc2cc(C)c(N3CCN(C(=O)CN4CCC(c5ccc(NC6CCC(=O)NC6=O)cc5F)CC4)CC3)cc2OC)ncc1C(F)(F)F (stereo not shown)
Return: 10 to 100 nM

Enquiry: # repeat for COc1cc(N2CCN(C(=O)CN3CCC(c4ccc(NC5CCC(=O)NC5=O)cc4)CC3)CC2)ccc1Nc1ncc(C(F)(F)F)c(Nc2ccccc2C(C)=O)n1 (stereo not shown)
Return: 10 to 100 nM

Enquiry: Further, for COc1cc(N2CCN(c3ncc(Cl)c(Nc4ccccc4C(C)=O)n3)CC2)ncc1NC(=O)CN1CCC(c2ccc(NC3CCC(=O)NC3=O)cc2)CC1 (stereo not shown) ?
Return: 100 to 1000 nM

Enquiry: Consider next the compound COc1cc(N2CCC[C@H](N(C)CN3CCC(c4ccc(NC5CCC(=O)NC5=O)cc4)CC3)C2)ccc1Nc1ncc(Cl)c(Nc2ccccc2C(C)=O)n1 (stereo partly shown) in the same way.
Return: ≥ 1000 nM

Enquiry: Query COc1cc(N2CCC(CN3CCN(c4ccc5c(c4)C(=O)N(C4CCC(=O)NC4=O)C5=O)CC3)CC2)ccc1Nc1ncc(Cl)c(Nc2ccccc2C(C)=O)n1 (stereo not shown) next
Return: ≥ 1000 nM

Enquiry: Record: COc1cc(N2CCN(C(=O)CN3CCC(c4ccc(NC5CCC(=O)NC5=O)cc4)CC3)CC2)ccc1Nc1ncc(Cl)c(Nc2cccc(F)c2)n1 (stereo not shown)
Return: ≥ 1000 nM

Enquiry: For COc1cc(N2CCN(C(=O)CN3CCC(c4ccc(NC5CCC(=O)NC5=O)cc4)CC3)CC2)c(C)cc1Nc1ncc(C(F)(F)F)c(Nc2ccccc2C(C)=O)n1 (stereo not shown) then?
Return: 100 to 1000 nM

Enquiry: What do you have for COc1cc(N2CCN(C(=O)CN3CCC(c4ccc(NC5CCC(=O)NC5=O)cc4)CC3)CC2)ccc1Nc1ncc(Cl)c(Nc2ccccc2C#N)n1 (stereo not shown) ?
Return: 100 to 1000 nM

Enquiry: Can you check COc1cc(N2CCC(N3CCN(C(=O)C4CCN(CC5CCN(c6ccc7c(c6)C(=O)N(C6CCC(=O)NC6=O)C7=O)CC5)CC4)CC3)CC2)ccc1Nc1ncc(Cl)c(Nc2ccccc2P(C)(C)=O)n1 (stereo not shown) [Comparative Compound 2, reference compound] next?
Return: 100 to 1000 nM
